Assay: Ocular tissue concentrations (aqueous humor, vitreous humor, iris, retina, choroid, cornea) after topical ocular, subcutaneous and intravitreal administration
Format: in vivo, New Zealand White rabbits
Conditions: New Zealand White, rabbit, aqueous humor, other: intravitreal, 2.5 mg per eye, Group 4 intravitreal 2.5 mg per eye; 24 hr; read-out: aqueous humor Average Conc.
Where a name gives a salt, the structure may show the parent alone.
measurementType: concentration at 24 hr

Req: For the compound COC(=O)N[C@@H](Cc1ccccc1)C(=O)N[C@@H](Cc1ccc(NS(=O)(=O)O)cc1)c1csc(-c2cccs2)n1 [Compound 1 sodium salt] , what concentration at 24 hr is on record?
Resp: 9000 ng/g

----------
Test: Ocular tissue concentrations (aqueous humor, vitreous humor, iris, retina, choroid, cornea) after topical ocular, subcutaneous and intravitreal administration
Format: in vivo, New Zealand White rabbits
Conditions: New Zealand White, rabbit, retina homogenate, other: intravitreal, 2.5 mg/eye, Retina homogenate, 72 hr, OD; sodium salt, intravitreal 2.5 mg/eye, Group 4; read-out: Retina Conc. (ng/mL) OD
measurementType: concentration at 72 h (ng/mL)
Answers are plain numbers, in ng/mL.

Req: For the compound COC(=O)N[C@@H](Cc1ccccc1)C(=O)N[C@@H](Cc1ccc(NS(=O)(=O)O)cc1)c1csc(-c2cccs2)n1 , what concentration at 72 h is on record?
Resp: 750

----------
Assay: Ocular tissue concentrations (aqueous humor, vitreous humor, iris, retina, choroid, cornea) after topical ocular, subcutaneous and intravitreal administration
Format: in vivo, New Zealand White rabbits
Conditions: New Zealand White, rabbit, choroid homogenate, other: intravitreal, 2.5 mg/eye, Choroid homogenate, 24 hr, OS; sodium salt, intravitreal 2.5 mg/eye, Group 4; read-out: Choroid Conc. (ng/mL) OS
measurementType: concentration at 24 hr (ng/mL)
Numbers only, in ng/mL.

Req: For the compound COC(=O)N[C@@H](Cc1ccccc1)C(=O)N[C@@H](Cc1ccc(NS(=O)(=O)O)cc1)c1csc(-c2cccs2)n1 [Compound 1] , what concentration at 24 hr is on record?
Resp: 9890

----------
Assay: Ocular tissue concentrations (aqueous humor, vitreous humor, iris, retina, choroid, cornea) after topical ocular, subcutaneous and intravitreal administration
Format: in vivo, New Zealand White rabbits
Conditions: New Zealand White, rabbit, cornea, other: intravitreal, 2.5 mg/eye, Cornea, 24 hr, average, intravitreal 2.5 mg/eye (group 5); read-out: Avg.
measurementType: concentration at 24 hr (ng/g)
One number for each entry, in ng/g.

Req: For the compound COC(=O)N[C@@H](Cc1ccccc1)C(=O)N[C@@H](Cc1ccc(NS(=O)(=O)O)cc1)c1csc(-c2cccs2)n1 [Compound 1] , what concentration at 24 hr is on record?
Resp: 17300

----------
Experiment: Ocular tissue concentrations (aqueous humor, vitreous humor, iris, retina, choroid, cornea) after topical ocular, subcutaneous and intravitreal administration
Assay type: in vivo, New Zealand White rabbits
Conditions: New Zealand White, rabbit, cornea homogenate, other: intravitreal, 2.5 mg/eye, Cornea homogenate, 6.0 hr, OS; sodium salt, intravitreal 2.5 mg/eye, Group 4; read-out: Cornea Conc. (ng/mL) OS
measurementType: concentration at 6 hr (ng/mL)
One number for each entry, in ng/mL.

Req: For the compound COC(=O)N[C@@H](Cc1ccccc1)C(=O)N[C@@H](Cc1ccc(NS(=O)(=O)O)cc1)c1csc(-c2cccs2)n1 [Compound 1] , what concentration at 6 hr is on record?
Resp: 6940
